Biological target: human Z A1AT (Homo sapiens, UniProt P01009, E366K)
Construct: expressed in transfected cells; host or cells: HEK-Z cells (human embryonic kidney cell line stably transfected with the human Z A1AT gene)
Sequence (P01009 25-418 E366K): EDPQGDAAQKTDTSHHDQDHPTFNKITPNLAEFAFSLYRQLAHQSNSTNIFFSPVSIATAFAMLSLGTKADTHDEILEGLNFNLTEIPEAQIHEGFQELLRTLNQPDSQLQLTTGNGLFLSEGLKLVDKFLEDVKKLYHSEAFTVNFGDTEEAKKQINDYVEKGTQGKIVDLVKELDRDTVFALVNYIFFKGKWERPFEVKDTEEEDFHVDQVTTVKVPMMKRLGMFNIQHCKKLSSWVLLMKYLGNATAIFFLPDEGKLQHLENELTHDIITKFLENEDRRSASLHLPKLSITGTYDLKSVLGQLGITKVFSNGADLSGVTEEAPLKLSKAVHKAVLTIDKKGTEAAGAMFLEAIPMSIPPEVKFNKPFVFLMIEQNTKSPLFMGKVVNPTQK
Test: A1AT cell secretion assay using HEK-Z cells (A1AT ELISA of supernatants)
Format: cell-based
Settings: 48 h, supernatant A1AT by ELISA
assay endpoint: Median A1AT % increase over vehicle at 300 nM (%)

INSERT INTO measurements (chemical_string, readout_value) VALUES
  ('CN(Cc1ccccc1)C(=O)c1ccc(Cn2ccccc2=O)cc1', 142),
  ('CN(C)C(=O)c1ccc(Cn2ccccc2=O)cc1', 125),
  ('CC(C)N(C)C(=O)c1ccc(Cn2ccccc2=O)cc1', 134),
  ('CN(CC(F)(F)F)C(=O)c1ccc(Cn2ccccc2=O)cc1', 129),
  ('CCN(C)C(=O)c1ccc(Cn2ccccc2=O)cc1', 147);
